assay comment: Cytotoxicity against OT1 mouse CD8-positive T cells assessed as cell viability at 10 uM measured after 48 hrs by live/dead viability staining based flow cytometry (reference value: 39.5%)
stated conditions: read-out: Activity
value kind: viability at 48 h, 10 µM (%)
Write it as a number; the unit % goes unstated.

1) C=C1CC[C@H]2[C@]3(C)C[C@@H](C=C(C)C)O[C@H]3CC[C@]2(C)[C@@H]1Cc1c(O)c(C)c(C)oc1=O : 7.19

Please turn your attention to the following entry.
What the record says about Cc1oc(=O)c(C[C@@H]2CCC[C@H]3CCCC[C@@]32C)c(O)c1C : viability at 48 h, 10 µM is 8.85

* * *

assay comment: Cytotoxicity against OT2 mouse CD4-positive T cells assessed as cell viability at 100 nM measured after 48 hrs by live/dead viability staining based flow cytometry (reference value: 57.2%)
stated conditions: read-out: Activity
value kind: viability at 48 h, 0.1 µM
I'd appreciate it if you included the unit after the number.

1) C=C1CC[C@H]2[C@]3(C)C[C@@H](C=C(C)C)O[C@H]3CC[C@]2(C)[C@@H]1Cc1c(O)c(C)c(C)oc1=O : 46%

Please turn your attention to the following entry.
What the record says about Cc1oc(=O)c(C[C@@H]2CCC[C@H]3CCCC[C@@]32C)c(O)c1C : viability at 48 h, 0.1 µM is 60.6%

* * *

// reported viability at 48 h, 10 µM for each item listed
assay comment: Cytotoxicity against OT2 mouse CD4-positive T cells assessed as cell viability at 10 uM measured after 48 hrs by live/dead viability staining based flow cytometry (reference value: 57.2%)
stated conditions: read-out: Activity
Write it as a number; the unit % goes unstated.

1) C=C1CC[C@H]2[C@]3(C)C[C@@H](C=C(C)C)O[C@H]3CC[C@]2(C)[C@@H]1Cc1c(O)c(C)c(C)oc1=O [SUBGLUTINOL A] : 24.4

What the record says about Cc1oc(=O)c(C[C@@H]2CCC[C@H]3CCCC[C@@]32C)c(O)c1C : viability at 48 h, 10 µM is 41.5
